Target chain: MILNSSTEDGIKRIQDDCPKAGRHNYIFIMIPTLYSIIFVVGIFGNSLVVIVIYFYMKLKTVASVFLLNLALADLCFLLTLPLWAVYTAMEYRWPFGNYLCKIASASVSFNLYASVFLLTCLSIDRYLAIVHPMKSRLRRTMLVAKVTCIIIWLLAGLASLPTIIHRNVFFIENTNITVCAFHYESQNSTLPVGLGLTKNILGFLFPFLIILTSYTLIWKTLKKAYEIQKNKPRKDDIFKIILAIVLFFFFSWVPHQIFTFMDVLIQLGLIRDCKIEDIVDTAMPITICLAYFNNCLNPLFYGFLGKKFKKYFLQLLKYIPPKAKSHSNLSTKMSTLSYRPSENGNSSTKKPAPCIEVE
Recorded endpoint: IC50 (nM)
Answer in nM, number only, no unit symbol.

Lookup: Consider the compound shown here: CCCCc1nc(Cl)c([C@@]2(C)C[C@@H]3CCCN3O2)n1Cc1ccc(-c2ccccc2-c2nn[nH]n2)cc1 (racemic) [Example 8] What is its recorded IC50?
Found: 34
